Assay: Partition coefficient (logP)
Format: physicochemical
Conditions: octanol/water; read-out: logP
One threshold, 2, splits the recorded logP values: lower ones are T, equal or higher ones are F.

Just wondering, is logP of CN[C@@H]1CC2CC[C@@H]1c1ccccc12 below 2? F

Please state whether logP is below 2 for N[C@H]1CC2C[C@@H]1c1cc(C(F)(F)F)ccc12 F

Input CCCN[C@@H]1CC2C[C@@H]1c1ccccc12 ; condition: logP strictly below 2. Does it hold? F

Is the reported logP for N[C@H]1CC2CC[C@@H]1c1ccccc12 strictly below 2? F

Given NC1C2CC[C@H]1c1ccccc12 (stereo in doubt; 17) , is recorded logP strictly lower than 2? F

Dear reviewer, please state whether CNC1C2CC[C@H]1c1ccccc12 (stereo in doubt; 13) has logP strictly beneath 2. F

Report whether reported logP is lower than 2 (strictly) for N[C@H]1CC2C[C@@H]1c1ccc(C(F)(F)F)cc12 F

Is it true that logP reported for CN[C@H]1CC2C[C@@H]1c1ccccc12 is less than 2? F

Please state whether logP is below 2 for CN[C@@H]1CC2O[C@@H]1c1ccccc12 T

Could you please tell me whether logP recorded for N[C@@H]1CC2O[C@@H]1c1ccccc12 is less than 2? T

Answer whether the compound CN[C@@H]1CC2C[C@@H]1c1ccccc12 has logP strictly less than 2 F

---

Assay: Partition coefficient (logP)
Format: physicochemical
Settings: octanol/water; read-out: logP
Observed property: logP
Returns: the value as a bare number; no unit string appended.

Please look up its logP: CN[C@H]1CC2O[C@@H]1c1ccccc12 0.59

Name the reported logP value associated with the molecule CN[C@H]1CC2CC[C@@H]1c1ccccc12 2.59

Which logP is reported for this molecule? CCCN[C@H]1CC2C[C@@H]1c1ccccc12 3.13

Entry N[C@@H]1CC2C[C@@H]1c1ccccc12 has what logP? 2.09

Entry CCN[C@@H]1CC2C[C@@H]1c1ccccc12 : reported logP = ? 2.72

GET /values?readout=logP&item= N[C@@H]1CC2CCC1c1ccccc12 (stereo not given in full) 2.32

Entry N[C@H]1CC2O[C@@H]1c1ccccc12 has what logP? 0.4

I'd like to know its logP. The molecule in question is N[C@@H]1CC2C[C@@H]1c1ccc(C(F)(F)F)cc12 3.21

Any idea what its logP is? The molecule is CCN[C@H]1CC2C[C@@H]1c1ccccc12 2.62

Fill in the blank: the reported logP of N[C@@H]1CC2C[C@@H]1c1cc(C(F)(F)F)ccc12 is ____. 3.19
